# PROCEDURE TEXT: self-splicing fitness, log relative to wild type (ln ratio); higher = more splicing; Tetrahymena group I intron in knt gene, E. coli kanamycin selection, DiMSum; sequences stand for … in CUCUCU…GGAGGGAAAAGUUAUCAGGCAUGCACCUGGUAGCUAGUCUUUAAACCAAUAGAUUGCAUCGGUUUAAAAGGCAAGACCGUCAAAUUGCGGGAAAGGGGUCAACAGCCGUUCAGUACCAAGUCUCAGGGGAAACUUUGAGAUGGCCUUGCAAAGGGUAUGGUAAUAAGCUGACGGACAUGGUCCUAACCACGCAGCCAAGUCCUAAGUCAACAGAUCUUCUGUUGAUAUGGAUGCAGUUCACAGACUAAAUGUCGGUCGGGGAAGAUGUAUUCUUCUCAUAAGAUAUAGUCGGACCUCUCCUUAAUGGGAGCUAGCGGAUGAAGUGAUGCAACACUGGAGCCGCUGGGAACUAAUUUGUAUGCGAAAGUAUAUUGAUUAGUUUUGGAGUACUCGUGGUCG;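 also: selection with 25 µg/mL kanamycin versus none on LB agar overnight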
# CONDITION INFO: 37 °C
TEST READOUT: self-splicing fitness (ln)
Just the number.

Consider the worked cases shown below.
Need self-splicing fitness (ln) of `AUGUAGCAAUAUUACGUCAC` , thanks.
-2.81

Then what about the sequence `GCGUAGCAAUAUUACGGCAU` ?
-0.0121

Then what about the sequence `CAAUAGCAAUAUUACGGCGC` ?
-1.37

***
Need self-splicing fitness (ln) of `CGUAAGCAAUAUUACGAGCA` , thanks.
-1.33

Then what about the sequence `AUGUAGCAAUAUUACGUAGU` ?
-1.42

Then what about the sequence `GGGUAGCAAUAUUACGUGAG` ?
0.074

Then what about the sequence `GAUAAGCAAUAUUACGCGGA` ?
-0.761

Then what about the sequence `CUAAAGCAAUAUUACGUUUG` ?
-0.672

Then what about the sequence `AUCAAGCAAUAUUACGAUAG` ?
-1.63

Then what about the sequence `AUUUAGCAAUAUUACGCCGC` ?
-1.82

Then what about the sequence `AGUUAGCAAUAUUACGUCGG` ?
-1.67

From: the supplement of paper PMC7877785
